target: menin (Homo sapiens, UniProt O00255, T541A); construct: Menin (a.a. 1-610-6×his tag); assay: Menin/MLL homogenous time-resolved fluorescence (HTRF) assay; assay type: binding; conditions: location 2; read-out: (2) location 2 Menin HTRF assay (IC50 (nM))
measurement_name: IC50 (nM)

[[record]]
compound = "CS(=O)(=O)Nc1ccc(C(=O)NC2CC3(CCN(c4ncnc5sc(CC(F)(F)F)cc45)C3)C2)cc1 (single isomer, unassigned) [Compound 29]"
value_reported = 316

[[record]]
compound = "Nc1nc(N2CCC3(CC(Nc4ccc5[nH]c(=O)[nH]c5c4)C3)C2)c2cc(CC(F)(F)F)sc2n1 (mixture of isomers) [Compound 381]"
value_reported = 9.4

[[record]]
compound = "O=c1ccc(NC2CCC3(C2)CN(c2ncnc4sc(CC(F)(F)F)cc24)C3)c[nH]1 (stereo not drawn)"
value_reported = 2160


[I] CNS(=O)(=O)c1ccc(NC2CC3(CCN(c4ncnc5sc(CC(F)(F)F)cc45)C3)C2)cc1 (single isomer, unassigned) [Compound 318]
[II] CS(=O)(=O)NCCCNC(=O)c1ccc(NC2CC3(CCN(c4ncnc5sc(CC(F)(F)F)cc45)C3)C2)nc1 (single isomer, unassigned)
[III] N#CCc1ccc(NC2CC3(CCN(c4ncnc5sc(CC(F)(F)F)cc45)C3)C2)c(F)c1 (stereo not drawn)
Task for the reader: rank each entry by its IC50, from the minimum upward. Give me the labels in the order the question wants. II, I, III
(II: 2.4 nM, I: 8.1 nM, III: 44.3 nM)

###

Target: menin (Homo sapiens, UniProt O00255, T541A)
Construct: Menin (a.a. 1-610-6×his tag)
Sequence (O00255 with tags, fused parts or gaps T541A): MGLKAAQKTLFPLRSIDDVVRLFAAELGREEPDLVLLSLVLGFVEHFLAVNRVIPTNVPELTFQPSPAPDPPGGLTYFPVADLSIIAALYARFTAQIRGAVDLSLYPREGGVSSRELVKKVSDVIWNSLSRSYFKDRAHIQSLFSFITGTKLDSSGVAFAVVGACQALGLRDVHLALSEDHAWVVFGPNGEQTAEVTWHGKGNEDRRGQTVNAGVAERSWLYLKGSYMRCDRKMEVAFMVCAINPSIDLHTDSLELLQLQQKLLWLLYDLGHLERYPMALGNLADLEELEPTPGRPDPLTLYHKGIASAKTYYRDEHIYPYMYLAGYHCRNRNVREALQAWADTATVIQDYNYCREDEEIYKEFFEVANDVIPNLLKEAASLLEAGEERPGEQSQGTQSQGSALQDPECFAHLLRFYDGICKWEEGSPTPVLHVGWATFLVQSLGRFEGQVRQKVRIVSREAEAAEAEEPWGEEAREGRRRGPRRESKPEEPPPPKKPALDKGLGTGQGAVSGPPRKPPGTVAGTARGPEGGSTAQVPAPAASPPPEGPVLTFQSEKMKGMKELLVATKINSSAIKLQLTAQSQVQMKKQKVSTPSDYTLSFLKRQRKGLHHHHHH
Assay: Menin/MLL homogenous time-resolved fluorescence (HTRF) assay
Type: binding
Settings: location 2; read-out: (2) location 2 Menin HTRF assay (IC50 (nM))
measurement_name: IC50 (nM)

Sample answers from the record:
[[record]]
compound = "CC(=O)Nc1ccc(NC2CC3(CCN(c4ncnc5sc(CC(F)(F)F)cc45)C3)C2)cc1 (single isomer, unassigned) [Compound 331]"
target_entity = "menin (Homo sapiens, UniProt O00255, T541A)"
value_reported = 3.4

[[record]]
compound = "O=S(=O)(c1ccc(NC2CC3(CCN(c4ncnc5sc(CC(F)(F)F)cc45)C3)C2)cc1)N1CCOCC1 (single isomer, unassigned) [Compound 220]"
target_entity = "menin (Homo sapiens, UniProt O00255, T541A)"
value_reported = 118

[[record]]
compound = "CS(=O)(=O)N1CCN(Cc2ccc(NC3CC4(CCN(c5ncnc6sc(CC(F)(F)F)cc56)C4)C3)cc2)CC1 (mixture of isomers) [Compound 351]"
target_entity = "menin (Homo sapiens, UniProt O00255, T541A)"
value_reported = 15.5

[[record]]
compound = "Cc1nc(N2CCC3(CC(Nc4ccccc4)C3)C2)c2cc(CC(F)(F)F)sc2n1 (stereo not shown) [Compound 264]"
target_entity = "menin (Homo sapiens, UniProt O00255, T541A)"
value_reported = 913

[[record]]
compound = "O=c1[nH]c2ccc(NC3CC4(CCN(c5ncnc6sc(CC(F)(F)F)cc56)C4)C3)cc2o1 (mixture of isomers) [Compound 322]"
target_entity = "menin (Homo sapiens, UniProt O00255, T541A)"
value_reported = 51.4


[a] N#CC1(c2ccc(NC3CC4(CCN(c5ncnc6sc(CC(F)(F)F)cc56)C4)C3)cc2)CC1 (single isomer, unassigned) [Compound 171]
[b] CNC(=O)c1ccc(NC2CC3(CCN(c4ncnc5sc(CC(F)(F)F)cc45)C3)C2)c(F)c1 (single isomer, unassigned) [Compound 67]
[c] N#CCc1cccc(C(=O)NC2CCC3(C2)CN(c2ncnc4sc(CC(F)(F)F)cc24)C3)c1 (stereo not shown) [Compound 18]
[d] CC(C)(NC1CCC2(C1)CN(c1ncnc3sc(CC(F)(F)F)cc13)C2)c1ccccc1 (racemic) [Compound 276]
[e] O=C(c1ccc(NC2CC3(CCN(c4ncnc5sc(CC(F)(F)F)cc45)C3)C2)c(F)c1)N1CCOCC1 (single isomer, unassigned) [Compound 352]
Task field, ranking: reported IC50, descending order. Return value: ordered labels per request. c, a, e, d, b

[I] Cn1c(=O)[nH]c2ccc(NC3CC4(CCN(c5ncnc6sc(CC(F)(F)F)cc56)C4)C3)cc21 (mixture of isomers) [Compound 325]
[II] FC(F)(F)Cc1cc2c(N3CC4(CCC(Nc5ccc6cc(C(F)(F)F)[nH]c6c5)C4)C3)ncnc2s1 (stereo not shown) [Compound 288]
Lab note: check whether I or II shows the higher recorded IC50. Mark your selection by writing its label. I
